Value source: patent US20250215105A1

- TARGET SYSTEM: T1, human CD39 recombinant antigen (UniProt P49961 38-478)
- T1 chain: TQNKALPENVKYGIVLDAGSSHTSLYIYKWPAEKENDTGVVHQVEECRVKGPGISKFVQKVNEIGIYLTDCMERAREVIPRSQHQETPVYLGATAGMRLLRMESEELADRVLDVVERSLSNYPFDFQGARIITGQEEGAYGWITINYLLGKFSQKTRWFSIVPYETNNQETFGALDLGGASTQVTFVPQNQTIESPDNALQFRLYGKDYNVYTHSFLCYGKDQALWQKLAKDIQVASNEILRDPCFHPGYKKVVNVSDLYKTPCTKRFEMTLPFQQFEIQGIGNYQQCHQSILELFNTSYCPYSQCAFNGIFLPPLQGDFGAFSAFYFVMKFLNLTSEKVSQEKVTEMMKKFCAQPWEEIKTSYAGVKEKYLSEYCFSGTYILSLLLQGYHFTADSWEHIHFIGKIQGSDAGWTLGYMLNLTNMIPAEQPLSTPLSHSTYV
- MEASUREMENT NOTES: SPR
As shown below, each of these binders has a reported Kd value.
Note: unit nM is implicit; provide only the numeric part.

The examples below pair each entry with its known result.
BINDER	NUMERIC RESULT
T86_sc (antibody, V domains shown) VH: QIQLVQSGPELKKPGETVKISCEASGYTFINYGMNWVKQAPGKGLKWMGWINTYTGEPTYADDFKGRFAFSLETSANTAYLQINNLKNEDTATYFCARKGYYGYPNYYAMDYWGQGTSVTVSS VL: DIVMTQSQKFMSTSVGDRVSITCKASQNVGTAVAWYQQKPGQSPKLLIYSASNRYTGVPDRFTGSGSGTDFTLTISNMQSEDLADYFCQQYSSYPITFGTGTKLEIK	4.28
HuP4_IB_sc (Fc fusion) VH: QVQLLESGPELVKPSATLSITCTVSGFSLTNYGVHWIRQAPGKGLEWLGVILRRGSTDYNAAFMSRFTISKDNSKNQVYFKLRSVTAEDTAVYYCAKTAVVAGDYFDYWGQGTMVTVSS VL: DIQMTQSHSTLSLSVGDRVTITCKASQNVGTNVAWYQQKPGQPPKALIYSASYRYSGVPSRFSGSGSGTDFTLTISSVQAEDVAVYYCQQYNSYPLTFGPGTKLEIK	0.396

Here is another binder to look at.
Request: Quick one: Kd for HuP4_11_sc (antibody, V domains shown) VH: EVQLVESGGALVQPGRSLRLSCAVSGFTLSNYGVHWVRQAPGKGLEWVAVILRRGSTDYNAAFMSRFTISKDNSKNTVYLQMNSLRADDTAVYYCAKTAVVAGDYFDYWGQGTTVTVSS VL: DIVMTQSQKFMSTSVGDRVSITCKASQNVGTNVAWYQQKPGQSPKLLIYSASYRYSGVPDRFTGSGSGTDFTLTISNMQSEDLADYFCQQYNSYPLTFGGGTKLEIK ?
Result: 0.377
